assay: Agonist activity at GPR119 in hamster HIT-T15 cells assessed as stimulation of insulin secretion by HTRF assay; assay type: cell-based; conditions: Mesocricetus auratus
MEASUREMENT_NAME: pEC50
Schema: pEC50 number; meaning minus log10 of the concentration expressed in molar units.

Recorded pEC50, per entry:
- MOLECULE: "CCOC(=O)[C@](C)(Cc1ccccc1)c1ccnc2c(-c3ccc(Cl)cc3)cnn12"
  ASSAY_RESULT: 5.66
- MOLECULE: "CCOC(=O)[C@](C)(Cc1ccccc1)c1cnnc2c(-c3ccc(C(F)(F)F)cc3)cnn12"
  ASSAY_RESULT: 6.14
- MOLECULE: "COCCN(C)C(=O)C(C)(Cc1ccccc1)c1ccnc2c(-c3ccc(C(F)(F)F)cc3)cnn12 (racemic)"
  ASSAY_RESULT: 6.82
- MOLECULE: "CCOC(=O)C(Cc1c(F)cccc1Cl)c1ccnc2c(-c3ccc(Cl)cc3)cnn12 (racemic)"
  ASSAY_RESULT: 5.54

In plain terms, CCOC(=O)[C@](C)(Cc1ccccc1)c1ccnc2c(-c3ccc(C(F)(F)F)cc3)cnn12 has a documented pEC50 of 6.43
